Origin of values: PubChem BioAssay

Listed here are compounds together with their documented z-score.
protocol.summary: compound effects on lung adenocarcinoma cell viability – A549, calcein-AM fluorescence, 48 h, basal, profiling panel (AID 1162); further: test concentration not given here
test.context: higher = more signal
// return just the number, without any unit appended

Answered cases to consult:
| compound | z-score |
| --- | --- |
| CCCNC(=O)[C@@]1(Sc2ccc(C)cc2)CC(=O)N(Cc2ccccc2C(F)(F)F)[C@@H]1c1ccc(CO)cc1I | -0.567 |
| COc1ccc(CCNC(=O)[C@@]2(c3ccc([N+](=O)[O-])cc3)CC(=O)N(CC34CC5CC(CC(C5)C3)C4)[C@@H]2c2ccc(CO)cc2I)cc1 | -0.68 |
| COc1cc(CO)cc(I)c1O[C@H]1C=C(C(=O)NCCO)C[C@@H](N(C(=O)c2cc3ccccc3oc2=O)C2CCCCCC2)[C@@H]1O | 0.062 |
| O=C1NC(=O)C2C1C=CC(C(O)C=Cc1ccc([N+](=O)[O-])cc1)N2Nc1ccc(Cl)cc1Cl (stereo not drawn) | -0.352 |

query: // query z-score value for entry C=C(CCCC)/C(=C/C[C@@H](OC(C)=O)c1ccccc1OCCO)c1cc(C(=O)OC)ccc1OC
result: 1.83

query: Can you check COc1cc(OC)c(C(O)C2C=CC3C(=O)NC(=O)C3N2Nc2ccccn2)cc1Br (stereo not drawn) next?
result: 0.837

query: Follow-up item: C=C(C)[C@@H]1CC=C(C(O)C2C=CC3C(=O)NC(=O)C3N2Nc2ccc(Cl)cc2Cl)CC1 (stereo partly drawn)
result: -3.8

query: Then this compound: O=C1[C@H]2C=C(Br)[C@H](C[C@@H]2OCCCCCCO)[C@@]12CO2
result: -0.141

query: How about COc1ccc([Si](C)(C)[C@@H]2[C@@H](CC(=O)N3Cc4ccccc4C[C@H]3CO)O[C@]3(C(=O)N(Cc4cccc(N5CCC5=O)c4)c4ccccc43)[C@H]2C)cc1 ?
result: -0.598

query: Can you handle O=C1C2C=CC(C(O)c3c(F)cccc3Cl)N(Nc3ccccc3F)C2C(=O)N1c1ccccc1 (stereo not drawn) next?
result: -0.505

query: Check CN(C)CCCCCCNC(=O)[C@@H]1C[C@@H]2C(=O)N[C@@H](CCCC[N+](C)(C)C)C(=O)N2[C@@H]1c1ccc(O)cc1 too.
result: -0.974

* * *

protocol.summary: optical density change of DRC41 E. coli – strain DRC41, OD650, 24 h, E. coli filamentation project, primary screen (AID 1093);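 further: MC1000 strain lacking acrAB efflux and sulA so SOS filamentation is blocked; test concentration not given here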
test.context: E. coli DRC41 growth, higher = more signal, called active from +8 up or from −8 down
z-score of 0.6 or higher: MET. Under 0.6: NOT MET.

Use these answered entries as a reference point.
| molecule | assigned.class |
| --- | --- |
| O=C1OCCC=C[C@H]2OC34C=CCN(CCN5CCOCC5)C(=O)[C@H]3N(CCCCCO)C(=O)[C@@H]4C12 (stereo not given in full) | NOT MET |
| COC(=O)[C@@]1(Cc2ccc(OC)cc2)[C@H]2c3cc(C(=O)N4CCCC4)n(CCc4ccc(O)c(O)c4)c3C[C@H]2CN1C(=O)c1ccccc1 | NOT MET |
| O=C1C2C=CC(C(O)C=Cc3ccc([N+](=O)[O-])cc3)N(Nc3ccccc3F)C2C(=O)N1c1ccccc1 (stereo not given) | NOT MET |
| C=CCN1Cc2ccccc2[C@@H]2OC(c3ccc(OCCCO)cc3)=N[C@]2(CCS(=O)(=O)c2ccccc2)C1=O | MET |

// next entry
query: Determine whether this molecule has z-score no lower than 0.6: CS(=O)(=O)CCOC(=O)C1=CC(CCCO)=CC(c2ccc(CN3CCCC3)cc2)N(Cc2cccc(OC(F)(F)F)c2)C=C1C(=O)OCCS(C)(=O)=O (stereo not given)
result: NOT MET

* * *

Listed here are molecules together with their documented composite z-score.
protocol.summary: probe aDKK1 binding to arrayed compounds – biochemical, biotinylated probe, 635/667 nm fluorescence, primary screen (AID 1099);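 further: score merges 667nm spot fluorescence with signal to noise across triplicate slides; reference of the scale not given here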
test.context: small-molecule microarray, higher = more signal

| molecule | value.observed |
| --- | --- |
| CO[C@H]1O[C@H](CO)[C@@H](OC(=O)Nc2ccc(Br)cc2)[C@@H]2OC(=O)[C@H](Cc3cccc(Br)c3)C/C=C/C[C@@H](Cc3cccc(Br)c3)C(=O)O[C@@H]12 | -0.157 |
| COCCOC(=O)N1C(=O)[C@@]2(c3cc(C#CC4(O)CCCCCC4)ccc31)[C@H](C(=O)Nc1nc3ccccc3s1)[C@H]1C(=O)O[C@H](c3ccccc3)[C@H](c3ccccc3)N1[C@@H]2c1ccccc1OCCO | 0.199 |
| O=C1C2C=CC(C(O)c3ccc(F)cc3)N(Nc3ccc([N+](=O)[O-])cc3)C2C(=O)N1c1ccccc1 (centres undefined) | 0.343 |
| Cc1ccc(S[C@]2(C(=O)NCC(C)C)CC(=O)N(Cc3cc(C(F)(F)F)cc(C(F)(F)F)c3)[C@@H]2c2ccc(CO)cc2)cc1 | 0.209 |
| CCCC(=O)N(CCc1c[nH]c2ccccc12)[C@@H]1CC(C(=O)NCCO)=C[C@H](Oc2c(I)cc(CO)cc2OC)[C@H]1O | -0.334 |

query: Looking for the measured composite z-score of O=C1NC(=O)C2C1C=CC(C(O)c1ccc(-c3ccccc3)s1)N2Nc1ccc(Cl)cc1Cl (centres undefined) , can you help?
result: -0.214

query: How about this molecule: CC(C)NC(=O)[C@@H]1c2ccccc2C(=O)N(C(C)C)[C@H]1c1ccc(CO)cc1
result: -0.29

query: Quick one: COc1ccc(C(O)C2C=CC3C(=O)N(C)C(=O)C3N2NC(=O)OC(C)(C)C)c2ccccc12 (centres undefined)
result: 0.578

query: Now the molecule Cc1ccc(C2C3C(=O)CC4C(=O)N(c5ccccc5)C(=O)C4C3CN2S(=O)(=O)c2ccc(C)cc2)cc1 (centres undefined)
result: 1.24

query: Then CC(C)[Si](C#CCCCC#N)(O[C@H](c1ccccc1)c1cn(Cc2cccc(Cl)c2)nn1)C(C)C ?
result: -0.0654

query: Same lookup for CCOC(=O)C[C@H]1[C@H](OC(=O)c2cc3ccccc3oc2=O)[C@@H](NC(=O)CC(C)C)c2cc(OCCCO)ccc2N1C(=O)c1ccccc1 , please.
result: -0.179

query: Subsequent entry: COC(=O)C(CC#Cc1ccc2c(c1)[C@]1(C(=O)N2)[C@H](c2ccc(O)cc2)N2[C@H](c3ccccc3)[C@H](c3ccccc3)OC(=O)[C@H]2[C@@H]1C(=O)N1CCN(c2ncccn2)CC1)C(=O)OC
result: 0.534

query: Now give it for O=C(O)[C@@]1(CCS(=O)(=O)c2ccccc2)N=C(c2ccc(OCCCO)cc2)O[C@H]1c1ccccc1 too.
result: 0.737

query: How about Cc1c(NC(=O)/C(C#N)=C/c2cccc([N+](=O)[O-])c2)c(=O)n(-c2ccccc2)n1C ?
result: -0.123

* * *

In this section, each of the molecules is paired with its reported z-score.
protocol.summary: resazurin metabolic signal in A549 cells – cell-based, resazurin fluorescence, 24 h, PK04 Diversity Set, profiling panel (AID 1171); further: test concentration not given here
test.context: A549 viability, higher = more signal, called active from +8 up or from −8 down
Lab note: jot the number down without any unit.

query: Return reported z-score; argument: O=C1C2C=CC(C(O)c3ccc(-c4ccccc4)s3)N(Nc3ccccc3)C2C(=O)N1c1ccccc1 (stereo not drawn)
result: 0.0364

query: Next: COc1ccc([Si](C)(C)[C@@H]2[C@@H](CC(=O)N3CCC[C@H]3CO)O[C@]3(C(=O)N(Cc4cccc(I)c4)c4ccccc43)[C@H]2C)cc1
result: -3.17

query: Then what about the molecule COCC(=C=CC[C@H](O)c1cccc(OCCO)c1)CCO ?
result: 0.614

query: Query COc1ccc(C(=O)Nc2cccc(CN3C(=O)[C@]4(O[C@H](CCn5cc(CCO)nn5)[C@@H]([Si](C)(C)c5ccc(OC)cc5)[C@@H]4C)c4ccccc43)c2)cc1 next
result: -6

query: Also, O=C1C2C=CC(C(O)c3ccc4c(c3)OCO4)N(Nc3ccc([N+](=O)[O-])cc3)C2C(=O)N1c1ccccc1 (stereo not drawn) please.
result: -0.0894

query: // same read-out, input: O=C1[C@H]2C=C(I)[C@H](C[C@@H]2OCCCCO)[C@@]12CO2
result: 0.109

query: And C#CCN1[C@@H](Cc2ccc(O)cc2)C(=O)O[C@H](Cc2ccccc2)[C@@H]1/C=C/C1CC1 ?
result: -1.01

query: Now consider O=C1NC(=O)C2C1C=CC(C(O)C=Cc1ccc([N+](=O)[O-])cc1)N2Nc1ccc(Cl)cc1Cl (stereo not drawn) .
result: -0.428

* * *

assayed.target: Luciferin 4-monooxygenase (Photinus pyralis)
protocol.summary: inhibition of purified Photinus pyralis luciferase – biochemical, luminescence, purified enzyme, 2006 set, primary screen (AID 1141);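 further: cell-free assay with purified firefly luciferase at 100 ng per well in PBS; test concentration not given here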
test.context: purified firefly luciferase, SteadyGlo luminescence, 30 min, called active from +8 up or from −8 down
Activity calls are given as the source filed them.
Result category, one only: YES for active, NO for inactive

| compound | assigned.class |
| --- | --- |
| [N-]=[N+]=NCc1ccccc1[C@@H]1OC(c2ccc(OCCCO)cc2)=N[C@]1(CCS(=O)(=O)c1ccccc1)C(=O)N1CCCCC1 | NO |
| CCCC[C@@H]1C[C@H]1[C@@H](NC(=O)c1cccnc1)c1ccc(Cl)cc1 | NO |
| COCCCNC(=O)[C@@]1(CCS(=O)(=O)c2ccccc2)N=C(c2ccc(OCCCO)cc2)O[C@H]1c1ccccc1N=[N+]=[N-] | YES |
| C=CC1c2cc(O)c(OC)cc2CCN1Cc1cccc(OC(F)(F)F)c1 (stereo not drawn) | NO |
| COC(=O)[C@]1(CCC(=O)OC(C)(C)C)N=C(c2ccc(OCCCO)cc2)O[C@@H]1c1ccccc1 | NO |
| CCCCC(=C=CC[C@@H](O)c1ccc(CO)o1)CCO | NO |
| C#CCOc1ccc(C[C@@H](C(=O)OC)N(CC#C)[C@@H](/C=C/C2CC2)[C@H](O)Cc2ccccc2)cc1 | NO |
| CC(C)CCC[C@@H](C)[C@H]1CC[C@@]2(C)C3=C(CC[C@]12C)[C@@]1(C)CC[C@H](OC(=O)c2ccc(C(F)(F)F)nc2)C(C)(C)C1CC3 (stereo partly drawn) | NO |
| O=C(O)[C@H]1C[C@H]2C(=O)N3CCC[C@H]3C(=O)N2[C@H]1c1ccc(O)cc1 | NO |
| OCC1C=C(/C=C/c2ccccc2)CN1Cc1ccccc1Br (stereo not drawn) | NO |

query: Record request — test call for CCOC(=O)C1=CC[C@H]2C(=O)N(c3ccccc3)C(=O)[C@@H]12
result: NO

query: Ok, now CCN(CC)c1ccc(N2CC=CC34O[C@@H]5/C=C\CCC(C)OC(=O)C5[C@H]3C(=O)N(CCCCCO)[C@@H]4C2=O)cc1 (stereo partly drawn)
result: NO

query: And what about the compound COc1cc2c(cc1O)C(c1cccs1)N(Cc1ccc([N+](=O)[O-])o1)CC2 (stereo not drawn) ?
result: NO
